Test system: MDA-MB-468
experimental protocol: drug sensitivity score (DSS), CellTiter-Blue viability (DSS (AUC-based score)); higher = stronger viability inhibition; extreme values may be limits of the assay
condition: incubation time: 72 h
parameter: drug sensitivity score
Write the number on its own, no unit after it.

Illustrative cases are given below, each with its answer.
O=C(O)C(=O)O.[NH-][C@@H]1CCCC[C@H]1[NH-].[Pt+2]; 2.32
CC[C@@H]1C(=O)N(C)c2cnc(Nc3ccc(C(=O)NC4CCN(C)CC4)cc3OC)nc2N1C1CCCC1; 15
C[C@H]1C[C@@H]2[C@H]([C@@H](O)C[C@@]3(C)[C@H]2CC[C@]3(O)C(=O)CO)[C@@]2(C)C=CC(=O)C=C12; 0
NCCCNCCSP(=O)(O)O; 0
CCc1cncnc1N1CCN(Cc2nc3ccc(C(F)(F)F)cc3[nH]2)CC1; 0

# input for lookup
Which value of drug sensitivity score has been reported for `N#Cc1ccc(C(c2ccc(C#N)cc2)n2cncn2)cc1` in the records?
0
